Tested on: K4 kissing-loop RNA reporter;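 also: bound reporter read as fluorescence of individual clusters on recovered sequencing chips by microscopy, with normalized cluster intensities fitted with a binding model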
Assay: apparent KD of K4 kissing-loop reporter; higher = weaker reporter binding
Settings: Eterna round: R107; input ligand: FMN 200 uM
Would you mind labelling by apparent KD of K4 kissing-loop reporter? At or over 300 nM is class 1, under is class 0.

For orientation, consider the following solved cases.
AGAGUUAUGCGAGGAUAUGCGGUUAGUACUCAAAGAGUACUAACGCAGAGUGAUGUUCUGUGAAACACAGAAGGCGCAUAACUCA [Omei KL FMN B SS B v1] | class 1
AAACGUCGGAAGUGAUGUUGAUGACGUAGUAAGGAUAUUGGACGCGCAAGAAGGUACUGGCAAACUAAGGACAUCCUGGAUAUUC [theeternabot_exclusion_KL_FMN_A_47] | class 1
GGGAGCAAAGCUCCCGGAUGCUAUAGUCAGGAGGAUAUCUGGAAACAGAGAAGGCCUAAGCCAGUGAUGUUGGCUAUAAGCAUCC | class 1
CCAGUGAUAAACGAUACCAGAAAUACCUUAUUUGGCCGGCGGAGUGAUGUUCCUAAUACUUUCCCUUGGCAGCGUCGAAUGCUAG [theeternabot_sameState_KL_Theo_B_16] | class 0
AAAAUAAGCCAGUGAUGUUGGUAUCCAGAUACCAGCGACGAAAGUCGCCCUUGGCAGCUGUGGACGUACAAAAUAAGUACGUCCU | class 0

Q: Hi, just wondering whether UUACUGAGUGAUGUUUGGAAAUAUCCUAGGCAGGAUAUGCGGAAACGCAGAAGGGCCACCUUCUAGUGAAGGAAACUUCGCUAUU [Ex FMN A 4] shows apparent KD of K4 kissing-loop reporter of 300 nM or higher.
Result: class 1

Q: Determine whether measured apparent KD of K4 kissing-loop reporter meets or exceeds 300 nM for UGAUACCAGACGGCCGCCACUAGGACCGGGAGUGAUGUUCCCAAUUUAAAAUGCUCGGCCGCCACUAGGACCGGGUCUGGUAUCU [TrypBX 27 #DoubleAptamer #SwitchBubble]
Result: class 0

Q: Reported apparent KD of K4 kissing-loop reporter reaches at least 300 nM for UGGAGUUGACGAAAAGUCAACUCCUGAGAAGGAGCGGACGAAAGUCCAGGUAGGUCGCUCACUAGCAGUGAUGUUGCUACAUAAA [#OpenEnded 2] ?
Result: class 0
